Test system: BT-20
Assay: MTS anti-proliferative assay, BT-20
Type: cell-based
Conditions: Homo sapiens, 168 h, BT-20, TNBC, basal A, treatment for 7 days
# maps each entry to its IC50
Hi! Could you send only the number? It should be in µM, unit omitted.

Completed entries (count: 3):
{"SAMPLE_SMILES": "COc1cc(N2CCC(O)CC2)ccc1Nc1nc(Nc2ccccc2S(=O)(=O)C(C)C)c2cc[nH]c2n1", "MEASURED_VALUE": 0.35}
{"SAMPLE_SMILES": "COc1ccccc1Nc1nc(Nc2ccccc2S(=O)(=O)C(C)C)c2cc[nH]c2n1", "MEASURED_VALUE": 0.05}
{"SAMPLE_SMILES": "COc1cc(N2CCOCC2)ccc1Nc1nc(Nc2ccccc2S(=O)(=O)C(C)C)c2cc[nH]c2n1", "MEASURED_VALUE": 1.5}

Data request, read-out IC50, for COc1cc(N2CCOCC2)ccc1Nc1nc(NC2CCCCC2)c2cc[nH]c2n1 0.57

###

Test system: CAL-51
Assay: MTS anti-proliferative assay, CAL-51
Type: cell-based
Settings: CAL-51, TNBC, basal, treatment for 7 days
VALUE_KIND: pIC50
Recall that pIC50 is obtained by taking minus log10 of the concentration measured in molar.

Name the reported pIC50 value associated with the molecule COc1cc(N2CCC(O)CC2)ccc1Nc1cc(Nc2ccccc2S(=O)(=O)C(C)C)c2cc[nH]c2n1 [Mps1-IN-1, reference compound] 5.74

###

Molecular target: Mps1/TTK kinase (recombinant GST-Mps1) (Homo sapiens)
Test: Mps1 in vitro kinase assay with Cetn2 substrate
Assay type: biochemical
Conditions: additional investigations (text to Table 2); read-out: IC50, in vitro kinase activity of Mps1
Quick reference: pIC50 of the listed items.
Just the number, please; pIC50 means minus log10 of the concentration in mol/L.

Record excerpt, results attached:
{"SAMPLE_SMILES": "COc1cc(N2CCOCC2)ccc1Nc1nc(Nc2ccccc2S(=O)(=O)C(C)C)c2cc[nH]c2n1", "EXPERIMENTAL_TARGET": "Mps1/TTK kinase (recombinant GST-Mps1) (Homo sapiens)", "VALUE_KIND": "pIC50", "MEASURED_VALUE": 4.88}
{"SAMPLE_SMILES": "COc1cc(N2CCC(O)CC2)ccc1Nc1nc(Nc2ccccc2S(=O)(=O)C(C)C)c2cc[nH]c2n1", "EXPERIMENTAL_TARGET": "Mps1/TTK kinase (recombinant GST-Mps1) (Homo sapiens)", "VALUE_KIND": "pIC50", "MEASURED_VALUE": 6.09}
{"SAMPLE_SMILES": "COc1cc(N2CCOCC2)ccc1Nc1nc(NC2CCCCC2)c2cc[nH]c2n1", "EXPERIMENTAL_TARGET": "Mps1/TTK kinase (recombinant GST-Mps1) (Homo sapiens)", "VALUE_KIND": "pIC50", "MEASURED_VALUE": 6.45}

Next molecule, please.
Recall the recorded pIC50 for COc1ccccc1Nc1nc(Nc2ccccc2S(=O)(=O)C(C)C)c2cc[nH]c2n1 with Mps1/TTK kinase (recombinant GST-Mps1) (Homo sapiens) and state it. 5.47

###

Reported IC50 by item:
System: Sk-Br-3
Test: MTS anti-proliferative assay, Sk-Br-3
Format: cell-based
Conditions: Homo sapiens, 168 h, Sk-Br-3, luminal, treatment for 7 days
Response body: numeric value in µM, unit text excluded.

Guide cases for IC50, answers given:
{"SAMPLE_SMILES": "COc1ccccc1Nc1nc(Nc2ccccc2S(=O)(=O)C(C)C)c2cc[nH]c2n1", "IC50 (µM)": 0.97}
{"SAMPLE_SMILES": "COc1cc(N2CCOCC2)ccc1Nc1nc(Nc2ccccc2S(=O)(=O)C(C)C)c2cc[nH]c2n1", "IC50 (µM)": 0.37}

# next compound below
API: value(readout=IC50, system=Sk-Br-3) for record COc1cc(N2CCOCC2)ccc1Nc1nc(NC2CCCCC2)c2cc[nH]c2n1 0.78

###

IC50 reference
Target: Mps1/TTK kinase (recombinant GST-Mps1) (Homo sapiens, UniProt P33981)
Assay: Mps1 in vitro kinase assay with Cetn2 substrate
Assay type: biochemical
Conditions: preliminary investigations; read-out: IC50, in vitro kinase activity of Mps1
Output spec: scalar in nM, unitless text.

{"SAMPLE_SMILES": "COc1cc(N2CCC(O)CC2)ccc1Nc1nc(Nc2ccccc2S(=O)(=O)C(C)C)c2cc[nH]c2n1", "IC50 (nM)": 155}

Given the molecule COc1cc(N2CCOCC2)ccc1Nc1nc(NC2CCCCC2)c2cc[nH]c2n1 , what is its reported IC50? 30

###

Tested on: MCF-7
Experiment: MTS anti-proliferative assay, MCF-7
Type: cell-based
Settings: Homo sapiens, MCF7, 168 h, MCF-7, luminal A, treatment for 7 days
VALUE_KIND: IC50 (nM)
Return type: number; implicit unit nM.

Look over these answered cases.
{"COMPOUND": "COc1ccccc1Nc1nc(Nc2ccccc2S(=O)(=O)C(C)C)c2cc[nH]c2n1 [Compound 10]", "MEASURED_VALUE": 350}
{"COMPOUND": "COc1cc(N2CCC(O)CC2)ccc1Nc1nc(Nc2ccccc2S(=O)(=O)C(C)C)c2cc[nH]c2n1 [Compound 1]", "MEASURED_VALUE": 440}

Now turn to the next compound.
So what does the record say about IC50 for COc1cc(N2CCOCC2)ccc1Nc1nc(Nc2ccccc2S(=O)(=O)C(C)C)c2cc[nH]c2n1 [Compound 11] ? 400

###

# IC50 per record follows
Test system: CAMA-1
Assay: MTS anti-proliferative assay, CAMA-1
Assay type: cell-based
Details: Homo sapiens, 168 h, CAMA-1, luminal, treatment for 7 days
# value in nM; strip the unit string

{"SAMPLE_SMILES": "COc1cc(N2CCOCC2)ccc1Nc1nc(Nc2ccccc2S(=O)(=O)C(C)C)c2cc[nH]c2n1", "MEASUREMENT_UNITS": "nM", "MEASURED_VALUE": 780}
{"SAMPLE_SMILES": "COc1cc(N2CCOCC2)ccc1Nc1nc(NC2CCCCC2)c2cc[nH]c2n1", "MEASUREMENT_UNITS": "nM", "MEASURED_VALUE": 1100}
{"SAMPLE_SMILES": "COc1ccccc1Nc1nc(Nc2ccccc2S(=O)(=O)C(C)C)c2cc[nH]c2n1", "MEASUREMENT_UNITS": "nM", "MEASURED_VALUE": 1550}

Lab note: next molecule to report on.
Value lookup for IC50; key = COc1cc(N2CCC(O)CC2)ccc1Nc1nc(Nc2ccccc2S(=O)(=O)C(C)C)c2cc[nH]c2n1 360

###

Molecular target: Mps1 (autophosphorylation) (Homo sapiens, UniProt P33981)
VALUE_KIND: IC50 (nM)
The reply should be a number in nM, with the unit left off.

I am curious: what IC50 value has been reported for COc1cc(N2CCOCC2)ccc1Nc1nc(NC2CCCCC2)c2cc[nH]c2n1 ? 312

###

Test system: HCC1937
Experiment: MTS anti-proliferative assay, HCC1937
Type: cell-based
Settings: Homo sapiens, 168 h, HCC1937, TNBC, basal, treatment for 7 days
VALUE_KIND: pIC50
In plain terms, pIC50 is the concentration in mol/L turned into minus its base-10 logarithm.

Param item = COc1cc(N2CCC(O)CC2)ccc1Nc1nc(Nc2ccccc2S(=O)(=O)C(C)C)c2cc[nH]c2n1 ; retrieve measured pIC50. 6.14

# get_value(readout='pIC50', item= COc1cc(N2CCOCC2)ccc1Nc1nc(Nc2ccccc2S(=O)(=O)C(C)C)c2cc[nH]c2n1 ) 5.96

Given the entry COc1ccccc1Nc1nc(Nc2ccccc2S(=O)(=O)C(C)C)c2cc[nH]c2n1 , report its measured pIC50. 6.00

Would you mind telling me what pIC50 value was observed for COc1cc(N2CCOCC2)ccc1Nc1nc(NC2CCCCC2)c2cc[nH]c2n1 ? 5.96

###

Biological target: Mps1/TTK kinase (recombinant GST-Mps1) (Homo sapiens)
Sequence (P33981 1-857): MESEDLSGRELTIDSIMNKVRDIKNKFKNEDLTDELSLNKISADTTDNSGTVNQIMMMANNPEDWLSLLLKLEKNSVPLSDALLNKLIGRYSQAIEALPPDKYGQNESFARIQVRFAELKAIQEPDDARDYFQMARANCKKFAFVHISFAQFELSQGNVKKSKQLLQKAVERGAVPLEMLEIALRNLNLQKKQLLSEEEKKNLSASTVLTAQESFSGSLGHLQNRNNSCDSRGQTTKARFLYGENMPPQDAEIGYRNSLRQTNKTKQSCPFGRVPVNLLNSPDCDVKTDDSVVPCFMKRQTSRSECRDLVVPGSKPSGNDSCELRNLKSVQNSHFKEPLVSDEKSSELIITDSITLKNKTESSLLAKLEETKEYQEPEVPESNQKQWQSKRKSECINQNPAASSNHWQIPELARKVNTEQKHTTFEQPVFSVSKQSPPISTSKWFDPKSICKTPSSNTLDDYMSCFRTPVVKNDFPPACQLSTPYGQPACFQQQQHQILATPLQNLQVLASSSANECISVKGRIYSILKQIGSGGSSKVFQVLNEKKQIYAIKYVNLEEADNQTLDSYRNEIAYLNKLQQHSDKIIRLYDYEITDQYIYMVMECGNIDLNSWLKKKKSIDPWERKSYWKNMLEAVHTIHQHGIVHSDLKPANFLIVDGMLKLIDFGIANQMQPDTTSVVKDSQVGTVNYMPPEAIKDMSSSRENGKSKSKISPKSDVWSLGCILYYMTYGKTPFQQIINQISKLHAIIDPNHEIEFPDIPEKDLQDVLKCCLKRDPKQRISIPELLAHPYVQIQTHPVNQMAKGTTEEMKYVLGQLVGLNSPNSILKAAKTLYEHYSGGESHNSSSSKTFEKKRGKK
Assay: Mps1 in vitro kinase assay with Cetn2 substrate
Assay type: biochemical
Details: in vitro kinase assay with Cetn2 substrate, Table 2; read-out: IC50 w/Cetn 2
pIC50 values by entry
// pIC50: -log10(molar conc.)

{"SAMPLE_SMILES": "COc1cc(N2CCOCC2)ccc1Nc1nc(Nc2ccccc2S(=O)(=O)C(C)C)c2cc[nH]c2n1", "pIC50": 4.88}

Entry COc1ccccc1Nc1nc(Nc2ccccc2S(=O)(=O)C(C)C)c2cc[nH]c2n1 has what pIC50? 5.47
